Molecular target: ΔAnc4
Experiment: isothermal titration calorimetry
Conditions: 25 °C; 20 mM HEPES, 150 mM NaCl, 2% glycerol, pH 8; 1:1 model
Quantity Name: pKd
Note on pKd: it is the negative log10 of concentration, concentration in mol/L.

If you can, please state the reported pKd value of CO[C@@H]1O[C@H](CO)[C@H](O)[C@H](O)[C@H]1O [BMDG] .
3.37

* * *

Target: ΔAnc1
Assay: isothermal titration calorimetry
Details: 25 °C; 20 mM HEPES, 150 mM NaCl, 2% glycerol, pH 8; 1:1 model
Quantity Name: Kd (µM)
Quick reminder: number only, in µM, skip the unit.

If you can, please state the reported Kd value of C[C@H]1OC(O)[C@H](O)[C@@H](O)[C@H]1O (stereo partly drawn) [D-fucose] .
420
